Listed below are compounds with pKi for UniProt:P18031, each taken from published literature.
target.entity: UniProt:P18031
Sequence (P18031 whole entry): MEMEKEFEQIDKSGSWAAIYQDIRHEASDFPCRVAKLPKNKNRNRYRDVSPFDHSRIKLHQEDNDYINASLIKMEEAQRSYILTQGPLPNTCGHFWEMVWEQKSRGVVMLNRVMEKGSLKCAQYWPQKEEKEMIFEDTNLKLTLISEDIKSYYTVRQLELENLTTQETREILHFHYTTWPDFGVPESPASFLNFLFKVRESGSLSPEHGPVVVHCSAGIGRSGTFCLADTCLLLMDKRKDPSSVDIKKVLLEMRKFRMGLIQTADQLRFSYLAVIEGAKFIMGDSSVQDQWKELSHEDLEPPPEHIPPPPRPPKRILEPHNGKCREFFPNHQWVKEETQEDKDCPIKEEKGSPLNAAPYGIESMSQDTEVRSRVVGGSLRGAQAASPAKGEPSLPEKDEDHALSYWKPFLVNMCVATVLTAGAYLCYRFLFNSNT
pKi: −log10 of the molar value.
parameter: pKi

{"compound": "Cc1c(-c2cccc(OC3CCN(S(=O)(=O)Cc4ccccc4)CC3)c2)sc(-c2nn[nH]n2)c1OCC(=O)O", "target.entity": "UniProt:P18031", "pKi": 5.89}

P = CCc1cc(CC(NC(C)=O)C(=O)NCCCCOc2ccccc2C(=O)OC)ccc1N(C(=O)C(=O)O)c1ccccc1C(=O)O (centres undefined)
Q = CN(CC(=O)N(Cc1ccc(C2CCCCC2)cc1)c1ccc(C(=O)O)c(O)c1)S(=O)(=O)c1cccc2cccnc12
R = O=C(O)COc1cc(-c2ccccc2)sc1-c1nn[nH]n1
Exercise: Hey, quick one: sort these by pKi, largest value first please. Hello, could you send the labels back in the order asked? Thank you.
Key: P, Q, R
(P: 5.80, Q: 5.25, R: 3.92)
